# measurement-target: Neuronal acetylcholine receptor; alpha3/beta4 (Homo sapiens, UniProt P30926+P32297)
# Sequence (P30926 whole entry): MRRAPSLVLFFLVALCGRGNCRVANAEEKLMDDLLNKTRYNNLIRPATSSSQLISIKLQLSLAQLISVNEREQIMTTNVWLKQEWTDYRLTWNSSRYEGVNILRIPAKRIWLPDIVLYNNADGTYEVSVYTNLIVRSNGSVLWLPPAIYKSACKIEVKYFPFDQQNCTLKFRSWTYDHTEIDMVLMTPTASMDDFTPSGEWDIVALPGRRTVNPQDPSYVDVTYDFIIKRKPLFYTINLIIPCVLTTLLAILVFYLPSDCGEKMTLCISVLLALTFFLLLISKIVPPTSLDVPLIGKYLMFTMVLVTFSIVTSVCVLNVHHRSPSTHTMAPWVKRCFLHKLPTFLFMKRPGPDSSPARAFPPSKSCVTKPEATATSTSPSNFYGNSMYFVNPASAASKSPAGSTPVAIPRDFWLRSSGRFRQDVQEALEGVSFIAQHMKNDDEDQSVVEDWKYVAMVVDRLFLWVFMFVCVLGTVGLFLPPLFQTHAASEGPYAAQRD
# Sequence (P32297 whole entry): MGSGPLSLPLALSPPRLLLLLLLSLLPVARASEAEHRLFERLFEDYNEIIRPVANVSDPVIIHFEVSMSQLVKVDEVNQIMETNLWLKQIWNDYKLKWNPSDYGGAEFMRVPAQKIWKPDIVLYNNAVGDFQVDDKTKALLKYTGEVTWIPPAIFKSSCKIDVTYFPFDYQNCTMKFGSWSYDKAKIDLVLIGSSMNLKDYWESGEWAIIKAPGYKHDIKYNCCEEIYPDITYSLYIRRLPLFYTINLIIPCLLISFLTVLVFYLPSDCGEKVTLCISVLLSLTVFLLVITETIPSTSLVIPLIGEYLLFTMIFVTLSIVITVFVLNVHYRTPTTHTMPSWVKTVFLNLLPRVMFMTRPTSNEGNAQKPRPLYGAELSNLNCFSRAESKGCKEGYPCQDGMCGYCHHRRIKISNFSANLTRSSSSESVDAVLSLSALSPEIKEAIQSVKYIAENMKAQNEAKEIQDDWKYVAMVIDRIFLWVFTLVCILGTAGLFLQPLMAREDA
# assay-name: Agonist activity at human alpha3beta4 nACHR expressed in CHO cell membranes assessed as stimulation of calcium flux by FLIPR assay relative to control
# Assay type: cell-based
metric-name: Emax (%)

{"compound": "C[C@@H]1C[C@@H]1C(=O)N1CC2CNCC2C1 (mixture of isomers)", "measurement-target": "Neuronal acetylcholine receptor; alpha3/beta4 (Homo sapiens, UniProt P30926+P32297)", "result": 180}
{"compound": "O=C(C1CC1)[C@H]1C[C@@H]2CNC[C@@H](C2)C1", "measurement-target": "Neuronal acetylcholine receptor; alpha3/beta4 (Homo sapiens, UniProt P30926+P32297)", "result": 10}
{"compound": "COC(=O)[C@H]1C[C@H]2CNC[C@H]2C1 (mixture of isomers)", "measurement-target": "Neuronal acetylcholine receptor; alpha3/beta4 (Homo sapiens, UniProt P30926+P32297)", "result": 100}
{"compound": "COC(=O)N1CC2CNCC2C1 (mixture of isomers)", "measurement-target": "Neuronal acetylcholine receptor; alpha3/beta4 (Homo sapiens, UniProt P30926+P32297)", "result": 85}
{"compound": "C[C@H]1C[C@H]1C(=O)N1CC2CNCC(C2)C1 (mixture of isomers)", "measurement-target": "Neuronal acetylcholine receptor; alpha3/beta4 (Homo sapiens, UniProt P30926+P32297)", "result": 140}
{"compound": "CC(=O)N1CC2CNCC2C1 (mixture of isomers)", "measurement-target": "Neuronal acetylcholine receptor; alpha3/beta4 (Homo sapiens, UniProt P30926+P32297)", "result": 36}
{"compound": "CCC(=O)N1CC2CNCC(C2)C1 (mixture of isomers)", "measurement-target": "Neuronal acetylcholine receptor; alpha3/beta4 (Homo sapiens, UniProt P30926+P32297)", "result": 130}
{"compound": "O=C([C@@H]1C[C@H]1F)N1CC2CNCC(C2)C1 (mixture of isomers)", "measurement-target": "Neuronal acetylcholine receptor; alpha3/beta4 (Homo sapiens, UniProt P30926+P32297)", "result": 130}
{"compound": "O=C([C@@H]1C[C@H]1F)N1CC2CNCC2C1 (mixture of isomers)", "measurement-target": "Neuronal acetylcholine receptor; alpha3/beta4 (Homo sapiens, UniProt P30926+P32297)", "result": 150}
{"compound": "CC(=O)N1CC2CNCC(C2)C1 (mixture of isomers)", "measurement-target": "Neuronal acetylcholine receptor; alpha3/beta4 (Homo sapiens, UniProt P30926+P32297)", "result": 110}

---

Let's look at some compounds and their measured pKi.
# measurement-target: Neuronal acetylcholine receptor; alpha4/beta2 (Homo sapiens, UniProt P17787+P43681)
# Sequence (P17787 whole entry): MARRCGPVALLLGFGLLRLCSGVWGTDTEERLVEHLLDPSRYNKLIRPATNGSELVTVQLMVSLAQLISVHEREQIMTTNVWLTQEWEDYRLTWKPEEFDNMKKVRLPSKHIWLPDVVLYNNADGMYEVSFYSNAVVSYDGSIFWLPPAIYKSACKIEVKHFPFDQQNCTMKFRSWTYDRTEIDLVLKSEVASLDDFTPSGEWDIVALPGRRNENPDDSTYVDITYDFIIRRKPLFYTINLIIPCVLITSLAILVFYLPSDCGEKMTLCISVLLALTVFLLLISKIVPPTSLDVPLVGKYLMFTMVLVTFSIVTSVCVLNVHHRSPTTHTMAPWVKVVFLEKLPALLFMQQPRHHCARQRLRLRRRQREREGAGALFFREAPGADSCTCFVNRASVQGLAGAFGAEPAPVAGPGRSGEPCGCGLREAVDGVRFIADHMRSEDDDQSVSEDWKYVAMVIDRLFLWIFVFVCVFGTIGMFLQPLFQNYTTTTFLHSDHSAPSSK
# Sequence (P43681 whole entry): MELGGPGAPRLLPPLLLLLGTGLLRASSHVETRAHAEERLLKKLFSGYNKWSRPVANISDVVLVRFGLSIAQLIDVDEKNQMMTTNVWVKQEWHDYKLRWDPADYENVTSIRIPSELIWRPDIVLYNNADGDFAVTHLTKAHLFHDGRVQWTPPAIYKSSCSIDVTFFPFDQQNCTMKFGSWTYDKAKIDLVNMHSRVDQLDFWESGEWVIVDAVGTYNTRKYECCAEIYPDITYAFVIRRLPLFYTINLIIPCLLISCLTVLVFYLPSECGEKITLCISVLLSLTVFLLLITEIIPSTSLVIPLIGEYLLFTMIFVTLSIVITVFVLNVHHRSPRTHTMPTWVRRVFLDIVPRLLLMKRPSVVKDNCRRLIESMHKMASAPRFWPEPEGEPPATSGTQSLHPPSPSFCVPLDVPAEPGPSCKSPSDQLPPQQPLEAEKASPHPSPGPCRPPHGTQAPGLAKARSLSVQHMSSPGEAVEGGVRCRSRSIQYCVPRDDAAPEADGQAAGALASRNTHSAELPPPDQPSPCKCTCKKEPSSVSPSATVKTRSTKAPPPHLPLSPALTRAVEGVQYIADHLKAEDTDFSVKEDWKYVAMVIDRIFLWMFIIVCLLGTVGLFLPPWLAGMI
# assay-name: Displacement of [3H]Nicotine from alpha4beta2 nACHR in human SHEP1 cell membranes after 2 hrs by liquid scintillation counting analysis
pKi: −log10 of the molar value.

{"compound": "CNC(=O)[C@H]1C[C@H]2CNC[C@H]2C1 (mixture of isomers)", "pKi": 6.74}
{"compound": "C[C@@H]1C[C@@H]1C(=O)N1CC2CNCC(C2)C1 (mixture of isomers)", "pKi": 9.70}
{"compound": "C[C@H]1C[C@H]1C(=O)N1CC2CNCC(C2)C1 (mixture of isomers)", "pKi": 8.54}
{"compound": "O=C(c1ccco1)[C@H]1C[C@H]2CNC[C@H]2C1 (mixture of isomers)", "pKi": 7.89}
{"compound": "CNC(=O)[C@H]1C[C@@H]2CNC[C@@H](C2)C1", "pKi": 8.72}

---

# measurement-target: Neuronal acetylcholine receptor; alpha4/beta2 (Homo sapiens, UniProt P17787+P43681)
# assay-name: Agonist activity at alpha4beta2 nACHR in human SHEP1 cell membranes assessed as stimulation of calcium flux by FLIPR assay
Doc: threshold 2000 nM (exclusive). Items with EC50 beneath it return YES; others return NO.

{"compound": "O=C([C@H]1C[C@H]1F)N1CC2CNCC2C1 (mixture of isomers)", "group": "YES"}
{"compound": "O=C(c1ccco1)[C@H]1C[C@H]2CNC[C@H]2C1 (mixture of isomers)", "group": "YES"}
{"compound": "COC(=O)N1CC2CNCC(C2)C1 (mixture of isomers)", "group": "NO"}
{"compound": "O=C([C@@H]1C[C@@H]1F)N1CC2CNCC(C2)C1 (mixture of isomers)", "group": "YES"}
{"compound": "O=C([C@H]1C[C@@H]1F)N1CC2CNCC(C2)C1 (mixture of isomers)", "group": "NO"}
{"compound": "CCC(=O)N1CC2CNCC(C2)C1 (mixture of isomers)", "group": "YES"}
{"compound": "O=C([C@@H]1C[C@H]1F)N1CC2CNCC(C2)C1 (mixture of isomers)", "group": "YES"}
{"compound": "CCC(=O)N1CC2CNCC2C1 (mixture of isomers)", "group": "YES"}
{"compound": "C[C@@H]1C[C@@H]1C(=O)N1CC2CNCC2C1 (mixture of isomers)", "group": "YES"}
{"compound": "C[C@H]1C[C@@H]1C(=O)N1CC2CNCC2C1 (mixture of isomers)", "group": "NO"}
{"compound": "O=C([C@H]1C[C@H]1F)N1CC2CNCC(C2)C1 (mixture of isomers)", "group": "NO"}
{"compound": "O=C([C@@H]1C[C@@H]1F)N1CC2CNCC2C1 (mixture of isomers)", "group": "YES"}
{"compound": "C[C@@H]1C[C@H]1C(=O)N1CC2CNCC2C1 (mixture of isomers)", "group": "YES"}
{"compound": "CC(C)NC(=O)[C@H]1C[C@@H]2CNC[C@@H](C2)C1", "group": "YES"}
{"compound": "CCCNC(=O)[C@H]1C[C@@H]2CNC[C@@H](C2)C1", "group": "NO"}
{"compound": "O=C(C1CC1)[C@H]1C[C@H]2CNC[C@H]2C1 (mixture of isomers)", "group": "YES"}
{"compound": "C[C@H]1C[C@@H]1C(=O)N1CC2CNCC(C2)C1 (mixture of isomers)", "group": "NO"}
{"compound": "COC(=O)[C@H]1C[C@H]2CNC[C@H]2C1 (mixture of isomers)", "group": "YES"}
{"compound": "O=C(C1CC1)[C@H]1C[C@@H]2CNC[C@@H](C2)C1", "group": "NO"}
{"compound": "O=C([C@H]1C[C@@H]1F)N1CC2CNCC2C1 (mixture of isomers)", "group": "YES"}
{"compound": "O=C([C@@H]1C[C@H]1F)N1CC2CNCC2C1 (mixture of isomers)", "group": "YES"}
{"compound": "C[C@H]1C[C@H]1C(=O)N1CC2CNCC(C2)C1 (mixture of isomers)", "group": "NO"}
{"compound": "C[C@@H]1C[C@@H]1C(=O)N1CC2CNCC(C2)C1 (mixture of isomers)", "group": "YES"}
{"compound": "CC(=O)N1CC2CNCC(C2)C1 (mixture of isomers)", "group": "NO"}
{"compound": "CC(=O)N1CC2CNCC2C1 (mixture of isomers)", "group": "NO"}
{"compound": "C[C@H]1C[C@H]1C(=O)N1CC2CNCC2C1 (mixture of isomers)", "group": "NO"}
{"compound": "C[C@@H]1C[C@H]1C(=O)N1CC2CNCC(C2)C1 (mixture of isomers)", "group": "NO"}

---

# measurement-target: Neuronal acetylcholine receptor; alpha3/beta4 (Homo sapiens, UniProt P30926+P32297)
# assay-name: Agonist activity at human alpha3beta4 nACHR expressed in CHO cell membranes assessed as stimulation of calcium flux by FLIPR assay
pEC50: −log10 of the molar value.

{"compound": "C[C@@H]1C[C@H]1C(=O)N1CC2CNCC(C2)C1 (mixture of isomers)", "pEC50": 5.80}
{"compound": "O=C(C1CC1)[C@H]1C[C@@H]2CNC[C@@H](C2)C1", "pEC50": 5.89}
{"compound": "CCCNC(=O)[C@H]1C[C@@H]2CNC[C@@H](C2)C1", "pEC50": 4.82}
{"compound": "C[C@H]1C[C@@H]1C(=O)N1CC2CNCC2C1 (mixture of isomers)", "pEC50": 4.47}
{"compound": "O=C([C@H]1C[C@H]1F)N1CC2CNCC2C1 (mixture of isomers)", "pEC50": 4.62}
{"compound": "O=C([C@@H]1C[C@@H]1F)N1CC2CNCC(C2)C1 (mixture of isomers)", "pEC50": 4.96}
{"compound": "CC(C)NC(=O)[C@H]1C[C@@H]2CNC[C@@H](C2)C1", "pEC50": 4.57}
{"compound": "C[C@H]1C[C@H]1C(=O)N1CC2CNCC2C1 (mixture of isomers)", "pEC50": 5.00}
{"compound": "CCC(=O)N1CC2CNCC(C2)C1 (mixture of isomers)", "pEC50": 5.23}
{"compound": "C[C@H]1C[C@@H]1C(=O)N1CC2CNCC(C2)C1 (mixture of isomers)", "pEC50": 5.08}
{"compound": "O=C([C@@H]1C[C@H]1F)N1CC2CNCC2C1 (mixture of isomers)", "pEC50": 5.08}
{"compound": "O=C(C1CC1)[C@H]1C[C@H]2CNC[C@H]2C1 (mixture of isomers)", "pEC50": 6.03}
{"compound": "O=C(c1ccco1)[C@H]1C[C@H]2CNC[C@H]2C1 (mixture of isomers)", "pEC50": 4.96}
{"compound": "O=C([C@H]1C[C@@H]1F)N1CC2CNCC(C2)C1 (mixture of isomers)", "pEC50": 5.10}
{"compound": "CC(=O)N1CC2CNCC2C1 (mixture of isomers)", "pEC50": 4.64}
{"compound": "C[C@H]1C[C@H]1C(=O)N1CC2CNCC(C2)C1 (mixture of isomers)", "pEC50": 6.52}
{"compound": "C[C@@H]1C[C@@H]1C(=O)N1CC2CNCC(C2)C1 (mixture of isomers)", "pEC50": 7.10}
{"compound": "C[C@@H]1C[C@H]1C(=O)N1CC2CNCC2C1 (mixture of isomers)", "pEC50": 4.85}
{"compound": "O=C([C@H]1C[C@H]1F)N1CC2CNCC(C2)C1 (mixture of isomers)", "pEC50": 5.68}
{"compound": "CCC(=O)N1CC2CNCC2C1 (mixture of isomers)", "pEC50": 4.74}
